Molecular target: hAT1R (Homo sapiens, UniProt P30556)
Assay: BRET β-arrestin2 biosensor assay, higher receptor expression (hAT1R 5 ng/well), HEK293 cells
Assay type: cell-based
Reported BRET β-Arrestin2 High AT1R Expression Ymax (%) values are given for each entry in this list.
valueType: BRET β-Arrestin2 High AT1R Expression Ymax (%)

compoundstructure=CCCCC(=O)N(Cc1ccc(-c2cc(-c3ccccc3)ccc2-c2nn[nH]n2)cc1)[C@]1(C(=O)O)CC[C@@H](O)CC1 studytarget="hAT1R (Homo sapiens, UniProt P30556)" readoutvalue=88.5
compoundstructure=CC(C)CCC(=O)N(Cc1ccc(-c2cc(-c3ccccc3)ccc2-c2nn[nH]n2)nc1)[C@H](C(=O)O)C(C)C studytarget="hAT1R (Homo sapiens, UniProt P30556)" readoutvalue=92.4
compoundstructure=CCc1nc2c(C)cc(C)nc2n1Cc1ccc(-c2cc(-c3ccccc3)ccc2-c2nsc(=O)[nH]2)cc1 studytarget="hAT1R (Homo sapiens, UniProt P30556)" readoutvalue=88.8
compoundstructure=CCOc1nc2cccc(C(=O)O)c2n1Cc1ccc(-c2cc(-c3ccc(C(=O)N(C)C)cc3)ccc2-c2noc(=O)[nH]2)cc1 studytarget="hAT1R (Homo sapiens, UniProt P30556)" readoutvalue=86.7
compoundstructure=CCCCC1=NC2(CCCC2)C(=O)N1Cc1ccc(-c2cc(-c3ccc(OC(F)F)cn3)ccc2-c2nn[nH]n2)cc1 studytarget="hAT1R (Homo sapiens, UniProt P30556)" readoutvalue=94.2
compoundstructure=CCCCC(=O)N(Cc1ccc(-c2cc(-c3ccccc3)ccc2-c2nn[nH]n2)nc1)C1(C(=O)O)CCCCC1 studytarget="hAT1R (Homo sapiens, UniProt P30556)" readoutvalue=88.1
compoundstructure=CCc1nc2c(C)cc(C)nc2n1Cc1ccc(-c2cc(-n3cccn3)ccc2-c2nn[nH]n2)cc1 studytarget="hAT1R (Homo sapiens, UniProt P30556)" readoutvalue=74.5

###

Molecular target: AGTR1 (Homo sapiens, UniProt P30556)
Construct: host or cells: Pathunter CHO-K1 AGTR1 β-arrestin cell line (CHO-K1)
Assay: DiscoveRx β-arrestin2 recruitment assay (enzyme complementation, Pathunter CHO-K1 AGTR1 β-arrestin cell line)
Assay type: cell-based
Settings: DiscoveRx β-arrestin2 recruitment
EC50 vs 60 nM: less than gives 1 (yes); not less than gives 0 (no).

molecule=CCCCc1ncc(C(=O)NCc2ccccn2)n1Cc1ccc(-c2cc(-c3ccccc3)ccc2-c2nn[nH]n2)cc1 assignedcategory="1 (yes)"
molecule="CCc1nc2c(C)cc(C)nc2n1Cc1ccc(-c2cc(C3CCCO3)ccc2-c2nn[nH]n2)cc1 (single isomer, unassigned) [Example 74]" assignedcategory="0 (no)"
molecule=CCc1nc2c(C)cc(C)nc2n1Cc1ccc(-c2cc(-c3ccc(N(C)C)cc3)ccc2-c2nn[nH]n2)cc1 assignedcategory="1 (yes)"
molecule=CCc1nc2c(C)cc(C)nc2n1Cc1ccc(-c2cc(-n3cc(C4CCCC4)nn3)ccc2-c2nnn[nH]2)cc1 assignedcategory="0 (no)"
molecule=CCOc1nc2cccc(C(=O)O)c2n1Cc1ccc(-c2cc(Oc3cccc(OC(F)(F)F)c3)ccc2-c2nn[nH]n2)cc1 assignedcategory="1 (yes)"
molecule=CCc1nc2c(C)cc(C)nc2n1Cc1ccc(-c2cc(-c3ccccc3)ccc2C(=O)O)cn1 assignedcategory="0 (no)"

###

Biological target: AGTR1 (Homo sapiens, UniProt P30556)
Construct: host or cells: Pathunter CHO-K1 AGTR1 β-arrestin cell line (CHO-K1)
Sequence (P30556 1-359): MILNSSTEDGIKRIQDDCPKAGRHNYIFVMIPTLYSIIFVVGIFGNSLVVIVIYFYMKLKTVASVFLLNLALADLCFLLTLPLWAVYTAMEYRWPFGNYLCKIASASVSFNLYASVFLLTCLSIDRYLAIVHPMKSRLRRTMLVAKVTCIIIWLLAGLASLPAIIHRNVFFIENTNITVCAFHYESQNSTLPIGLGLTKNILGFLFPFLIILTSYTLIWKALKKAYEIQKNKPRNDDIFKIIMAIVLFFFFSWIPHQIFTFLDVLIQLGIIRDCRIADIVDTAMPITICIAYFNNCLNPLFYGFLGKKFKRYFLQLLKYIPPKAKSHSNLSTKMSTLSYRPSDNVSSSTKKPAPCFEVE
Experiment: DiscoveRx β-arrestin2 recruitment assay (enzyme complementation, Pathunter CHO-K1 AGTR1 β-arrestin cell line)
Format: cell-based
Settings: DiscoveRx β-arrestin2 recruitment, maximal response
valueType: DiscoveRx β-arrestin2 Ymax (%)

compound="CCCCC(=O)N(Cc1ccc(-c2cc(-c3cccc(C)n3)ccc2-c2nn[nH]n2)cc1)C1(C(=O)O)CCCCC1 [Example 294]" studytarget="AGTR1 (Homo sapiens, UniProt P30556)" readoutvalue=28.9%
compound="CCc1nc2c(C)cc(C)nc2n1Cc1ccc(-c2cc(C3CCCC3)ccc2-c2nn[nH]n2)cc1 [Example 80]" studytarget="AGTR1 (Homo sapiens, UniProt P30556)" readoutvalue=33.5%
compound="CCCc1nc(CC)c(C(=O)OCC)n1Cc1ccc(-c2cc(-c3ccccc3)ccc2-c2nn[nH]n2)cc1 [Example 395]" studytarget="AGTR1 (Homo sapiens, UniProt P30556)" readoutvalue=54.1%
compound="CCCCc1ncc(C(=O)NC(C)(C)C)n1Cc1ccc(-c2cc(-c3ccccc3)ccc2-c2nn[nH]n2)cc1 [Example 352]" studytarget="AGTR1 (Homo sapiens, UniProt P30556)" readoutvalue=35.7%

###

Target: AGTR1 (Homo sapiens, UniProt P30556)
Construct: host or cells: Pathunter CHO-K1 AGTR1 β-arrestin cell line (CHO-K1)
Test: DiscoveRx β-arrestin2 recruitment assay (enzyme complementation, Pathunter CHO-K1 AGTR1 β-arrestin cell line)
Assay type: cell-based
Settings: DiscoveRx β-arrestin2 recruitment
valueType: log10 of EC50 (log10 of the value in nM)

compoundstructure=CCCCc1ncc(C(=O)Nc2ccc(C)nn2)n1Cc1ccc(-c2cc(-c3ccccc3)ccc2-c2nn[nH]n2)cc1 valuetype="log10 of EC50" readoutvalue=1.27
compoundstructure=CCCCC(=O)N(Cc1ccc(-c2cc(N3CC(C)(C)c4ccccc43)ccc2-c2nn[nH]n2)cc1)[C@H](C(=O)O)C(C)C valuetype="log10 of EC50" readoutvalue=2.68
compoundstructure=CCCCc1nc(Cl)c(C(=O)O)n1Cc1ccc(-c2cc(C3CCCCC3)ccc2-c2nn[nH]n2)cc1 valuetype="log10 of EC50" readoutvalue=2.00
compoundstructure=CCc1nc2c(C)cc(C)nc2n1Cc1ccc(-c2cc(-c3cncc(C)c3)ccc2-c2nn[nH]n2)cc1 valuetype="log10 of EC50" readoutvalue=1.73
compoundstructure=CCCCC(=O)N(Cc1ccc(-c2cc(-c3cc(F)cc(F)c3)ccc2-c2nn[nH]n2)cc1)C1(C(=O)O)CCCCC1 valuetype="log10 of EC50" readoutvalue=1.68
compoundstructure=CCc1nc2c(C)cc(C)nc2n1Cc1ccc(-c2cc(-c3cccc(C(=O)N(C)C)c3)ccc2-c2nn[nH]n2)cc1 valuetype="log10 of EC50" readoutvalue=1.73
compoundstructure=CCCCc1nc(Cl)c(C(=O)O)n1Cc1ccc(-c2cc(-c3cnn(C)c3)ccc2-c2nn[nH]n2)cc1 valuetype="log10 of EC50" readoutvalue=1.96

###

Target: hAT1R (Homo sapiens, UniProt P30556)
Experiment: BRET β-arrestin2 biosensor assay, higher receptor expression (hAT1R 5 ng/well), HEK293 cells
Assay type: cell-based
Reported BRET β-Arrestin2 High AT1R Expression Ymax (%) values are given for each entry in this list.
valueType: BRET β-Arrestin2 High AT1R Expression Ymax (%)

compoundstructure=CCCCC(=O)N(Cc1ccc(-c2cc(-c3ccccn3)ccc2-c2nn[nH]n2)cc1)[C@H](C(=O)O)C(C)C readoutvalue=83.9
compoundstructure=CCCCC(=O)N(Cc1ccc(-c2cc(-c3ccccc3)ccc2-c2nn[nH]n2)cc1)[C@]1(C(=O)O)CC[C@@H](C)CC1 readoutvalue=87.2
compoundstructure=CCCCC1=NC2(CCCC2)C(=O)N1Cc1ccc(-c2cc(-c3ccc(CO)cc3)ccc2-c2nn[nH]n2)cc1 readoutvalue=65.1
compoundstructure=CCCCC1=NC2(CCCC2)C(=O)N1Cc1ccc(-c2cc(-c3ccccc3CO)ccc2-c2nn[nH]n2)cc1 readoutvalue=11.0

###

Target: UniProt:P30556
Sequence (P30556 1-359): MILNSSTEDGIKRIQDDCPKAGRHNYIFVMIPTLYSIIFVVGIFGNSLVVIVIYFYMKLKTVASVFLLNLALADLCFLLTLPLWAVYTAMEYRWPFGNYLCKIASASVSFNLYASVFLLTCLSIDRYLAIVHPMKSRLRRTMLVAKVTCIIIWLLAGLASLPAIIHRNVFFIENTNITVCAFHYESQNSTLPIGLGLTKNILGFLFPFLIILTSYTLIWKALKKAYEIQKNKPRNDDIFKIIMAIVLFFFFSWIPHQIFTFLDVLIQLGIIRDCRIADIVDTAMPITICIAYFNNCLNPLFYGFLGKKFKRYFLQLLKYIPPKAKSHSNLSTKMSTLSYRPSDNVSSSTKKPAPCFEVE
Test: cell-based
Settings: section of the 42nd table ending at r951, example numbering restarts after the DiscoveRx section; read-out: β-arrestin2 EC50
valueType: EC50 (nM)

molecule="CCc1nc2c(C)cc(C)nc2n1Cc1ccc(-c2cc(-c3ccccc3)ccc2-c2nnn[nH]2)cn1 [Example 179]" studytarget=UniProt:P30556 valuetype=EC50 uom=nM boundsign== readoutvalue=61.4
molecule="CCCCC1=NC2(CCOCC2)C(=O)N1Cc1ccc(-c2cc(-c3ccccc3O)ccc2-c2nnn[nH]2)cc1 [Example 157]" studytarget=UniProt:P30556 valuetype=EC50 uom=nM boundsign== readoutvalue=61.1
molecule="Cc1cnn(-c2ccc(-c3nn[nH]n3)c(-c3ccc(Cn4cnnc4C)cc3)c2)c1 [Example 459]" studytarget=UniProt:P30556 valuetype=EC50 uom=nM boundsign== readoutvalue=1240
molecule="CCc1nc2c(C)cc(C)nc2n1Cc1ncc(-c2cc(-c3ccccc3)ccc2-c2nnn[nH]2)cn1 [Example 190]" studytarget=UniProt:P30556 valuetype=EC50 uom=nM boundsign== readoutvalue=154
molecule="CCC1=NC2(CCOC2)C(=O)N1Cc1ccc(-c2cc(-c3ccccc3O)ccc2-c2nnn[nH]2)cc1 (single isomer, unassigned) [Example 167]" studytarget=UniProt:P30556 valuetype=EC50 uom=nM boundsign== readoutvalue=58.3
molecule="CCc1nc2c(C)cc(C)nc2n1Cc1ccc(-c2cc(-c3cn(CC)nn3)ccc2-c2nnn[nH]2)cc1 [Example 234]" studytarget=UniProt:P30556 valuetype=EC50 uom=nM boundsign== readoutvalue=12.2
molecule="CCCCn1cc(-c2ccc(-c3nnn[nH]3)c(-c3ccc(Cn4c(CC)nc5c(C)cc(C)nc54)cc3)c2)nn1 [Example 241]" studytarget=UniProt:P30556 valuetype=EC50 uom=nM boundsign== readoutvalue=50.2
molecule="CCOc1nc2cccc(C(=O)O)c2n1Cc1ccc(-c2cc(-c3cc(N(C)C)ccn3)ccc2-c2noc(=O)[nH]2)cc1 [Example 305]" studytarget=UniProt:P30556 valuetype=EC50 uom=nM boundsign== readoutvalue=90.3
molecule="CCc1nc2c(C)cc(C)nc2n1Cc1ccc(-c2cc(-n3cc(C(F)(F)F)cn3)ccc2-c2nnn[nH]2)cc1 [Example 224]" studytarget=UniProt:P30556 valuetype=EC50 uom=nM boundsign== readoutvalue=7.6
molecule="CCOc1nc2cccc(C(=O)O)c2n1Cc1ccc(-c2cc(-c3cccc(C)c3)ccc2C(=O)O)cc1 [Example 313]" studytarget=UniProt:P30556 valuetype=EC50 uom=nM boundsign== readoutvalue=21.5
molecule="CCOc1nc2cccc(C(=O)O)c2n1Cc1ccc(-c2cc(-c3ccccc3)ccc2-c2nn[nH]n2)cc1 [Example 312]" studytarget=UniProt:P30556 valuetype=EC50 uom=nM boundsign== readoutvalue=5.8
molecule="CC1=NC2(CCOCC2)C(=O)N1Cc1ccc(-c2cc(-c3ccccc3)ccc2-c2nn[nH]n2)cc1 [Example 172]" studytarget=UniProt:P30556 valuetype=EC50 uom=nM boundsign=> readoutvalue=10000
molecule="CCOc1nc2cccc(C(=O)O)c2n1Cc1ccc(-c2cc(-c3ccc(C)cn3)ccc2-c2noc(=O)[nH]2)cc1 [Example 300]" studytarget=UniProt:P30556 valuetype=EC50 uom=nM boundsign== readoutvalue=12.8
molecule="CCc1nc2c(C)cc(C)nc2n1Cc1ccc(-c2cc(-c3cccc(C)c3)ccc2-c2nnn[nH]2)nn1 [Example 191]" studytarget=UniProt:P30556 valuetype=EC50 uom=nM boundsign== readoutvalue=76
